experiment: Lethal concentration required to kill 50% Ramos RA1 cells of the human lymphocyte with a mutation at Asp 254; assay type: functional; conditions: read-out: LC50 (the source's name)

# MOLECULE, VALUE COMPARATOR, CC50 [µM]
data = [
    ("C=C1C(=O)C2(C(=O)NCC(C)C)CCC1C2(C)C (centres undefined)", "=", 21.5),
    ("O=C1C2CCN(CC2)C1(CO)CO", "=", 17.2),
    ("C=C1C(=O)C2CC1C1CCCC21 (centres undefined)", "=", 35),
    ("C=C1CCc2cc(OC)ccc2C1=O", "=", 1.8),
    ("C=C1C(=O)C2(CS(=O)(=O)NCC(C)C)CCC1C2(C)C (centres undefined)", "=", 157),
    ("C=C1C(=O)C2CCC1(C)C2(C)C (centres undefined)", "=", 609),
    ("C=C1C(=O)C2CCC1C2 (centres undefined)", "=", 8.28),
    ("CC(C)=C1CC[C@H](C)CC1=O", "=", 509),
    ("C=C1C2CCC(C2)C1O (centres undefined)", "=", 805),
    ("C=C1C(=O)C2(C(=O)OC)CCC1C2(C)C (centres undefined)", "=", 26.4),
    ("C=C1C(=O)C2(C(=O)O)CCC1C2(C)C (centres undefined)", "=", 353),
    ("C=C1C(=O)C2(CS(=O)(=O)NCc3ccc(OC)cc3)CCC1C2(C)C (centres undefined)", "=", 69.9),
    ("C=C1C(=O)C2(C(=O)Nc3ccc(OC)cc3)CCC1C2(C)C (centres undefined)", "=", 14.3),
    ("O=C1CC2CCC1C2 (centres undefined)", ">", 618),
    ("C=C1C(=O)C2(C(=O)NCc3ccc(OC)cc3)CCC1C2(C)C (centres undefined)", "=", 15.9),
    ("C=C1CCc2cc(OC)c(OC)cc2C1=O", "=", 4.9),
    ("C=C1Cc2cc(OC)ccc2C1=O", "=", 3.2),
    ("C=C1C2=NS(=O)(=O)CC23CCC1C3(C)C (centres undefined)", "=", 2.1),
    ("COc1ccc(/C=C/c2nc(NCCCN(C)C)c3ccccc3n2)cc1", "=", 14.3),
    ("C=C1CC2CCC1C2 (centres undefined)", ">", 924),
    ("C=C1CCc2ccccc2C1=O", "=", 12.9),
    ("C=C1CCOC1=O [TULIPALINE A]", "=", 39.3),
    ("C=C1C(=O)C2(CS(=O)(=O)Nc3ccc(OC)cc3)CCC1C2(C)C (centres undefined)", "=", 12.7),
    ("C=C1C(=O)[C@@]2(C)CC[C@H]1C2(C)C", "=", 609),
]

====

system: CAKI-1; experiment: Fold selectivity expressed as ratio of LC50 for Caki cells with non-mutant p53 to LC50 for Ramos RA1 cells with a mutation at Asp 254; format: functional, Homo sapiens
Would you mind labelling by Fold selectivity? At or over 8 is Fulfilled, under is Not fulfilled.

# MOLECULE, CLASS ASSIGNMENT
records = [
    ("C=C1C(=O)C2CC1C1CCCC21 (centres undefined)", "Not fulfilled"),
    ("C=C1CCOC1=O [TULIPALINE A]", "Not fulfilled"),
    ("C=C1CCc2cc(OC)c(OC)cc2C1=O", "Not fulfilled"),
    ("C=C1C(=O)C2(C(=O)NCc3ccc(OC)cc3)CCC1C2(C)C (centres undefined)", "Not fulfilled"),
    ("C=C1C(=O)C2(CS(=O)(=O)Nc3ccc(OC)cc3)CCC1C2(C)C (centres undefined)", "Fulfilled"),
    ("CC(C)=C1CC[C@H](C)CC1=O", "Not fulfilled"),
    ("C=C1Cc2cc(OC)ccc2C1=O", "Fulfilled"),
    ("COc1ccc(/C=C/c2nc(NCCCN(C)C)c3ccccc3n2)cc1", "Not fulfilled"),
    ("C=C1C2CCC(C2)C1O (centres undefined)", "Not fulfilled"),
    ("C=C1CCc2ccccc2C1=O", "Not fulfilled"),
    ("C=C1C(=O)C2CCC1(C)C2(C)C (centres undefined)", "Not fulfilled"),
    ("C=C1C2=NS(=O)(=O)CC23CCC1C3(C)C (centres undefined)", "Not fulfilled"),
    ("C=C1CCc2cc(OC)ccc2C1=O", "Fulfilled"),
]

Origin of values: ChEMBL document CHEMBL1138632
